Below, each of the compounds is paired with its reported inhibition value.
# system: Platelet-activating factor acetylhydrolase IB subunit alpha2 (Homo sapiens)
# measurement-protocol: PAFAH1B2 enzyme inhibitors, primary screen, biochemical, fluorescence polarization, human (AID 492953);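 note: 0% = enzyme with DMSO and 100% = wells lacking PAFAH1B2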
# condition-parameters: recombinant PAFAH1B2, FP-rhodamine activity probe, at 3.39 µM, stronger effect = higher value
Among all 340,000 compounds or so, about 4,200 (1.2%) were called active. Many of the other results were omitted from the sample, so actives are more common in it than they were.

* NNC(=O)CSc1nnc(-c2ccccc2)n1-c1ccccc1 | 17.7% (inactive)
* COc1ccc(CCNS(=O)(=O)c2cccc([N+](=O)[O-])c2)cc1 | 13.1% (inactive)

### Prompt Give inhibition (Platelet-activating factor acetylhydrolase IB subunit alpha2 (Homo sapiens)) of the following compound: O=S(=O)(Nc1ncnc2sccc12)c1cccc(F)c1
### Response -0.25% (inactive)

### Prompt Fill in the recorded inhibition for this compound, with Platelet-activating factor acetylhydrolase IB subunit alpha2 (Homo sapiens) as test system: Clc1ccc(CSc2nnc([C@@H]3CCCN3)o2)cc1
### Response 24.3% (active)

### Prompt Provide value of inhibition for this record tested with Platelet-activating factor acetylhydrolase IB subunit alpha2 (Homo sapiens): CCCc1cc(=O)[nH]c(SCc2cc(=O)oc3c(C)c(C)ccc23)n1
### Response -0.37% (inactive)

### Prompt Record CN(CC(=O)Nc1ccc(Cl)cc1)C(=O)CNC(=O)c1ccc2ccccc2c1 : what is its inhibition with Platelet-activating factor acetylhydrolase IB subunit alpha2 (Homo sapiens)?
### Response 29% (active)

* * *

Consider the following molecules and their measured inhibition readings.
# system: Platelet-activating factor acetylhydrolase IB subunit alpha2 (Homo sapiens)
# measurement-protocol: PAFAH1B2 enzyme inhibitors, primary screen, biochemical, fluorescence polarization, human (AID 492953);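 note: 0% = enzyme with DMSO and 100% = wells lacking PAFAH1B2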
# condition-parameters: recombinant PAFAH1B2, FP-rhodamine activity probe, at 3.39 µM, stronger effect = higher value
The campaign covered roughly 340,000 compounds. About 4,200 (1.2%) were called active. The sample holds actives, similar compounds and a random draw of the others, so the mix is not that of the screen.
Number only, in %; omit the unit.

Example results:
- Cc1cc(C)c(NC(=O)CN2CCOCCOCCOCCOCC2)c(C)c1: 0.53
- CCc1ccc2[nH]c(=O)c(Cc3ccccc3)c(O)c2c1: 24.7
- O=C(CN1C(=O)CSC1=O)N1CCCC(Nc2ccc(F)cc2)C1 (stereo not drawn): -1.15
- COCC1CCN(C(=O)C2CCC(=O)N(Cc3cccc(C(F)(F)F)c3)C2)CC1 (stereo not drawn): -0.17
- O=C(Nc1ccc2ccccc2c1[N+](=O)[O-])c1ccccc1: 5.08
- CC(=O)NC1=NC(=O)CS1: -3.07
- O=C(CCS(=O)(=O)c1ccc(Br)cc1)NCCc1ccc(Cl)cc1: 25.1
- CC(C)(C)NC(=O)c1cccc(NC(=O)Cc2ccc(Br)cc2)c1: 28.1

### Prompt State the recorded inhibition for this entry: Cc1ccc(NS(=O)(=O)c2ccc(N/N=C/c3ccccc3OCC(=O)O)c([N+](=O)[O-])c2)c(C)c1
### Response 4.33

### Prompt Look up inhibition for this molecule: CN1C(c2ccc(F)cc2)=CS/C1=C(/C#N)c1nnc2n1-c1ccccc1SC2
### Response 2.85

### Prompt inhibition for CCN(CC)CCn1c2ccc(Cl)cc2c2nc(C)sc21 ?
### Response -5.01

### Prompt // lookup inhibition for COc1ccc(Cl)cc1C=CC=Nc1ccc(S(N)(=O)=O)cc1
### Response -2.05

### Prompt // lookup inhibition for O=c1[nH]c(/C=C/c2cccc(Br)c2)nc2ccccc12
### Response 1.93

### Prompt Could you tell me which inhibition is on file for COc1ccc(Br)cc1/C=N/Nc1ccc(S(=O)(=O)Nc2ccccc2C(=O)O)cc1[N+](=O)[O-] ?
### Response 4.57

* * *

# system: Platelet-activating factor acetylhydrolase IB subunit alpha2 (Homo sapiens) (UniProt P68402)
# Sequence (P68402 whole entry, looked up): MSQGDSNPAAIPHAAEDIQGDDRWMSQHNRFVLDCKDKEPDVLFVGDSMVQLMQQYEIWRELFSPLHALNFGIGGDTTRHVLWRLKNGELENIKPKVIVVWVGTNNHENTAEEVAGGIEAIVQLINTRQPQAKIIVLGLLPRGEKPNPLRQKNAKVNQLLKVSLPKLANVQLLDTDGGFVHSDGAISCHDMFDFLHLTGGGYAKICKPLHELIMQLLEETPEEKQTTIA
# measurement-protocol: PAFAH1B2 enzyme inhibitors, primary screen, biochemical, fluorescence polarization, human (AID 492953);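 note: 0% = enzyme with DMSO and 100% = wells lacking PAFAH1B2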
# condition-parameters: recombinant PAFAH1B2, FP-rhodamine activity probe, at 3.39 µM, stronger effect = higher value
The campaign covered roughly 340,000 compounds. About 4,200 (1.2%) were called active. The list comes from a sample in which actives are over-represented; it also holds close analogues and randomly drawn compounds.
The entries below are paired with their reported inhibition.
State just the number; it will be interpreted in %.

• O=C1COc2ccc(S(=O)(=O)Nc3ccc(OC(F)(F)F)cc3)cc2N1 = 41.6
• Cc1cc(=O)[nH]c(SCc2cccc(F)c2)n1 = 3.14
• CCNC(=S)NNC(=O)Cc1ccccc1 = 0.2
• Cc1ccc(CNS(=O)(=O)CCNC(=O)c2ccccc2)cc1 = 0.61
• O=C(O)CCn1cc(/C=C/C(=O)c2ccc(Cl)cc2)c(-c2cccc(Br)c2)n1 = 51.4
• CC(C)Cn1cnc2c(SCc3ccc(Cl)cc3)nc(N)nc21 = 7.46

### Prompt // inhibition lookup, key: C=CC(=O)Nc1ccc(Nc2ccnc(Nc3ccc(N4CCN(C)CC4)cc3)n2)cc1
### Response 1.32

### Prompt Consider the compound shown here: COc1ccc(CNCCCNCc2ccc(OC)c(OC)c2)cc1OC What is its recorded inhibition?
### Response 2.53

### Prompt Which measured inhibition value corresponds to COc1ccc(C2(CNC(=O)Cc3ccc(OC)c(OC)c3)CCCC2)cc1 ?
### Response -0.19

### Prompt Dear colleague, I am looking for the recorded inhibition of the following compound: CC(C)C(=O)Nc1cccc(NC(=S)NC(=O)C(c2ccccc2)c2ccccc2)c1
### Response -2.74

### Prompt Suppose we examine the compound O=C(CN1CCSCC1)N/N=C/c1ccc(F)cc1 ; what inhibition value has been reported?
### Response -6.64

### Prompt Quick check: inhibition of CN1C(C)(C)CC(NC(=O)CCC(=O)NC2CC(C)(C)N(C)C(C)(C)C2)CC1(C)C ?
### Response 2.28

### Prompt What inhibition value was documented for this compound, Cc1ccc(NS(=O)(=O)c2cc3c(cc2C)NC(=O)CO3)cc1 ?
### Response 6.94

### Prompt Any idea what inhibition was measured for Nc1ccc2nc3c(=O)[nH]c(=S)[nH]c3nc2c1 ?
### Response 33.8

### Prompt Endpoint output: inhibition of Cc1cc(=O)[nH]c(SCc2cc(Cl)ccc2OC(F)F)n1 . Value?
### Response 26.4

### Prompt Requested read-out: inhibition. Entry: COc1ccc(S(=O)(=O)N2CCOC2CNC(=O)C(=O)NCc2ccncc2)cc1C (configuration not stated)
### Response 1.87

### Prompt Given CCN(C(=O)CN1CCN(Cc2ccccc2)CC1)c1c(N)n(Cc2ccccc2)c(=O)[nH]c1=O , state its recorded inhibition.
### Response -0.83

### Prompt So what's the measured inhibition for this one? CCc1nnc(NC(=O)c2nc3nccc(C)n3n2)s1
### Response 7.37

### Prompt For the compound O=C(Cc1cccs1)N(CC1CCCO1)C1(C(=O)NC2CCCCC2)CCCCC1 (configuration not stated) , what inhibition is on record?
### Response 2.99

### Prompt Would you mind telling me what inhibition value was observed for CC(=O)N1CCC(C(=O)OCc2ccc(Cl)cc2)(c2ccccc2)CC1 ?
### Response 7.86

### Prompt Can you look up the measured inhibition of C/C(Cn1nnc2ccccc21)=N\OC(=O)c1cc(F)c(F)cc1Cl for me?
### Response 25.1

### Prompt Which measured inhibition value corresponds to CCC(CC)COC(=O)C1=C(C)NC(=O)NC1c1ccc([N+](=O)[O-])cc1 (configuration not stated) ?
### Response 28.2

### Prompt Request the reported inhibition associated with CSc1ncnc2c1ncn2CC(=O)C1CCC2C3CCC4=CC(=O)CCC4(C)C3CCC12C (configuration not stated)
### Response 3.57

### Prompt Please look up its inhibition: O=C(O)CCCCCCCCCC[n+]1ccccc1
### Response 1.11

### Prompt Suppose we examine the compound COc1cc(C(=O)Nc2cc(C(F)(F)F)ccc2-n2cncn2)cc(OC)c1OC ; what inhibition value has been reported?
### Response -1.88

### Prompt Quick one: inhibition for CCCCN(C(=O)CSCc1ccc(C)cc1)c1c(N)n(Cc2ccccc2)c(=O)[nH]c1=O ?
### Response 8.05

### Prompt Given COc1cc(CC(=O)Nc2nc(-c3ccc(F)c(F)c3)cs2)cc(OC)c1OC , state its recorded inhibition.
### Response 1.73

* * *

# system: Platelet-activating factor acetylhydrolase IB subunit alpha2 (Homo sapiens) (UniProt P68402)
# measurement-protocol: PAFAH1B2 enzyme inhibitors, primary screen, biochemical, fluorescence polarization, human (AID 492953);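 note: 0% = enzyme with DMSO and 100% = wells lacking PAFAH1B2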
# condition-parameters: recombinant PAFAH1B2, FP-rhodamine activity probe, at 3.39 µM, stronger effect = higher value
The whole screen tested about 340,000 compounds, of which about 4,200 (1.2%) were called active. For the sample, actives were picked, then their nearest neighbours and some compounds at random.
endpoint: inhibition (%)
Your answer is read as %, so omit the unit and give the number.

The cases that follow already have their inhibition on record.
* CCOC(=O)c1c(NC(=O)CSc2cn(CC)c3ccccc23)sc2c1CCC2 | -2.98
* CCOC(=O)c1c(NC(=O)CSc2nnc(CN3CCOCC3)n2C)sc2c1CCCC2 | -1.06
* COc1cccc(CC(=O)OCC(=O)NCc2ccc3c(c2)OCO3)c1 | 8.95
* CCOC(=O)C1CCN(C(=O)Nc2ccc(Cl)cc2)CC1 | 2.4

### Prompt State the recorded inhibition for this entry: COc1cc2c(cc1OC)C1C(=O)c3cc(OS(C)(=O)=O)c(OC)cc3C1N(C)C2=O (configuration not stated)
### Response 0.81

### Prompt # query: inhibition of entry CCOC(=O)C1Sc2[nH]c(=O)sc2C(c2ccc(Cl)cc2)C1C(=O)OCC (configuration not stated)
### Response 27

### Prompt Entry O=C(NCCN1CCN(C(=O)c2cccc([N+](=O)[O-])c2)CC1)C(=O)NCc1ccc(Cl)cc1 has what inhibition?
### Response 10.4
